Biological target: T1, biotin-labelled EZH2 protein (UniProt Q15910 1-746, limits assumed, biotin label (EZ-link NHS-PEO4-Biotinylation kit))
T1 construct: Probe in solution (1 ug/ml) on the KDM2B peptide microarray; also called NHS-PEO4-Biotinylation-labelled EZH2 protein; recombinant protein
T1 sequence (Q15910 whole entry): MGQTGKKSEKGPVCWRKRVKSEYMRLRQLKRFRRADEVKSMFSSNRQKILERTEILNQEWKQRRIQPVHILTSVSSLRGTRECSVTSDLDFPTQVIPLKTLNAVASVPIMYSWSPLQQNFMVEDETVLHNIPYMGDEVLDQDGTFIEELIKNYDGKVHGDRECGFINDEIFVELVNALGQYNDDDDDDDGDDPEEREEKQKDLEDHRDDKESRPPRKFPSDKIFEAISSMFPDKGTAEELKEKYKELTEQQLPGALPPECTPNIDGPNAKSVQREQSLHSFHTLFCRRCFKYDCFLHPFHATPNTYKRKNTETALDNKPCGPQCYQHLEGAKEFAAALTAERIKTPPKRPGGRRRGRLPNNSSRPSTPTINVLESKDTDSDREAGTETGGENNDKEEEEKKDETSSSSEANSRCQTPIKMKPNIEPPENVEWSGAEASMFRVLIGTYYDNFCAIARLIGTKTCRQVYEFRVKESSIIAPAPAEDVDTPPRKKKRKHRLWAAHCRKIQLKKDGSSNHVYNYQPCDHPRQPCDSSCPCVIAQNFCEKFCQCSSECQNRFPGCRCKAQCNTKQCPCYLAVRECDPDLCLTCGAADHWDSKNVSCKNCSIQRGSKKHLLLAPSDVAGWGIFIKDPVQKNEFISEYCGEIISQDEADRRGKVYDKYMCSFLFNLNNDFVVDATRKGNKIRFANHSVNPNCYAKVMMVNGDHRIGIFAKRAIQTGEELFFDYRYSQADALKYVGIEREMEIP
Test: KDM2B peptide array probed with biotin-EZH2 1 ug/ml, SA-HRP/ECL;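 note: 100% is the highest background-corrected spot optical density on the membrane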;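 note: Background-corrected optical density of each spot on the membrane, given as percent of the brightest spot (100%), color developed for 5 minutes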
Catalogue of Intensity (%) readings, one per entry.
experimentalReadout: Intensity (%)

| binder | experimentalReadout | unit | measured |
| --- | --- | --- | --- |
| SLPENKKCVPEGIED [peptide 106] | Intensity (%) | % | 3.77 |
| MKYPKVKKYCLMSVK [peptide 45] | Intensity (%) | % | 7.77 |
| FWLIPPTLHNLALYE [peptide 53] | Intensity (%) | % | 0.7 |
| ARRRRTRCRKCEACL [peptide 122] | Intensity (%) | % | 100 |
| ADDDPSLAITGVPVV [peptide 112] | Intensity (%) | % | 0 |
| SCPLLRTLDVQWVEG [peptide 235] | Intensity (%) | % | 2.02 |
| LSDVEEIVSVRGFSL [peptide 12] | Intensity (%) | % | 0.13 |
| DQQPQEEEEKDEEGE [peptide 84] | Intensity (%) | % | 0 |
| RFSKGLNGTPRELRH [peptide 200] | Intensity (%) | % | 0.91 |
| GCFTDFHIDFGGTSV [peptide 48] | Intensity (%) | % | 0 |
| EFELKGLKALVEKLE [peptide 103] | Intensity (%) | % | 4.44 |
| EEEEKDEEGEGRDRA [peptide 85] | Intensity (%) | % | 0 |
| RYCKQVTKEGCEQFI [peptide 261] | Intensity (%) | % | 5.21 |
| VLKEHADDDPSLAIT [peptide 111] | Intensity (%) | % | 0.99 |
| AAHVMHREVWMAVFS [peptide 213] | Intensity (%) | % | 11.8 |
| TVVDLVDWVDNMWPQ [peptide 39] | Intensity (%) | % | 0.27 |
